Test system: Aβ42 produced and secreted into the medium of human neuroblastoma SKNBE2 cells
Assay: Cellular αlisa assay in SKNBE2 cells, Aβ42
Format: cell-based
Details: Homo sapiens, SKNBE2, 18 h, SKNBE2 cells expressing hAPP695, incubated for 18 hours; read-out: Cellular αlisa assay in SKNBE2 cells Aβ42 pIC50 (converted)
Label scheme, based on IC50: 0 (below 30 nM), 1 (30 nM to below 70 nM), 2 (70 nM or more)

Here are 8 compounds together with their reported answers.
C[C@@]1(c2cc(NC(=O)c3ncc(Cl)cc3Cl)ccc2F)Cn2cc(C(F)(F)F)nc2C(N)=N1
0
C[C@@]1(c2cc(NC(=O)c3ccsn3)ccc2F)Cn2ccnc2C(N)=N1
1
NC1=NC(c2cc(NC(=O)c3ncc(Cl)cc3F)ccc2F)(C(F)F)Cn2ccnc21 (centres unmarked)
2
COc1cnc(C(=O)Nc2ccc(F)c(C3(C)Cn4ccnc4C(N)=N3)c2)cn1 (single isomer, unassigned)
1
CC1(c2cc(NC(=O)c3ccc(F)cn3)ccc2F)Cn2ccnc2C(N)=N1 (single isomer, unassigned)
1
C[C@@]1(c2cc(NC(=O)c3ccn(C(F)F)n3)ccc2F)Cn2ccnc2C(N)=N1
0
C[C@@]1(c2cc(NC(=O)c3ccc(F)cn3)ccc2F)Cn2cc(C(F)(F)F)nc2C(N)=N1
1
Cc1nc(C(=O)Nc2ccc(F)c([C@]3(C)Cn4cc(C(F)(F)F)nc4C(N)=N3)c2)co1
1

Q. Hi, small favor: classify COc1cnc(C(=O)Nc2ccc(F)c([C@]3(C)Cn4c(Cl)cnc4C(N)=N3)c2)cn1 by its IC50 when you get a moment.
A. 0

Q. For C[C@@]1(c2cc(NC(=O)c3ncc(C#N)cc3F)ccc2F)Cn2ccnc2C(N)=N1 , which IC50 bin applies?
A. 0

Q. Please report the category associated with C[C@@]1(c2cc(NC(=O)c3ccc(F)cn3)ccc2F)Cn2cc(Cl)nc2C(N)=N1 , nothing else.
A. 1

Q. Looking at C[C@@]1(c2cc(NC(=O)c3ncc(C#N)cc3Cl)ccc2F)Cn2ccnc2C(N)=N1 , which class would you pick?
A. 0

Q. Exam item: assign COc1cnc(C(=O)Nc2ccc(F)c([C@]3(C)Cn4cc(Cl)nc4C(N)=N3)c2)cn1 to the correct category.
A. 1

###

Target: recombinant BACE1 protein (Homo sapiens)
Construct: recombinant BACE1 protein in a final concentration of 1 μg/ml
Assay: Biochemical FRET based assay
Details: recombinant BACE1 1 μg/ml, 10 μm substrate, 120 minutes, room temperature, pH 5.0; read-out: Biochemical FRET based assay pIC50 (converted)
Description: This assay is a Fluorescence Resonance Energy Transfer Assay (FRET) based assay. […] Upon cleavage by BACE1, the fluorophore Mca is separated from the quenching group Dnp, restoring the full fluorescence yield of the donor. The increase in fluorescence is linearly related to the rate of proteolysis (Koike H et al. J. Biochem. 1999, 126, 235-242). […]
Field 'label' (enum: Yes / No). Set to Yes when IC50 is strictly under 0.06 µM; else No.

Consider the following illustrative entries.
C[C@@]1(c2cc(NC(=O)c3ncc(C#N)cc3Cl)ccc2F)Cn2ccnc2C(N)=N1
Yes
COc1ccc(C(=O)Nc2ccc(F)c([C@]3(C)Cn4ccnc4C(N)=N3)c2)nc1
No
C[C@@]1(c2cc(NC(=O)c3ncc(Cl)cc3Cl)ccc2F)Cn2ccnc2C(N)=N1
Yes
C[C@@]1(c2cc(NC(=O)c3ccc(F)cn3)ccc2F)Cn2c(C#N)cnc2C(N)=N1
No
COc1cnc(C(=O)Nc2ccc(F)c([C@]3(C)Cn4cc(Cl)nc4C(N)=N3)c2)cn1
No
Cc1nc(C(=O)Nc2ccc(F)c([C@]3(C)Cn4cc(C(F)(F)F)nc4C(N)=N3)c2)co1
No

# next molecule below
Q. Regarding C[C@@]1(c2cc(NC(=O)c3ccn(C(F)F)n3)ccc2F)Cn2cc(C(F)F)nc2C(N)=N1 , kindly confirm whether its IC50 is beneath 0.06 µM.
A. No

###

System: Aβ42 produced and secreted into the medium of human neuroblastoma SKNBE2 cells
Experiment: Cellular αlisa assay in SKNBE2 cells, Aβ42
Format: cell-based
Conditions: Homo sapiens, SKNBE2, 18 h, SKNBE2 cells expressing hAPP695, incubated for 18 hours; read-out: Cellular αlisa assay in SKNBE2 cells Aβ42 pIC50 (converted)
Label t when IC50 < 20 nM; otherwise f.

Completed entries (count: 4):
CC1(c2cc(NC(=O)c3ccc(Cl)cn3)ccc2F)Cn2ccnc2C(N)=N1 (single isomer, unassigned)
t
CC1(c2cc(-c3cncc(Cl)c3)c(F)cc2F)Cn2ccnc2C(N)=N1 (single isomer, unassigned)
f
C[C@@]1(c2cc(NC(=O)c3ccc(Cl)cn3)ccc2F)Cn2cc(C(F)F)nc2C(N)=N1
t
C[C@@]1(c2cc(NC(=O)c3ccc(F)cn3)ccc2F)Cn2cc(C#N)nc2C(N)=N1
f

Q. hey, is IC50 for C[C@@]1(c2cc(NC(=O)c3ccn(C(F)F)n3)ccc2F)Cn2cc(C(F)(F)F)nc2C(N)=N1 lower than 20 nM or not?
A. t

Q. Item C[C@@]1(c2cc(NC(=O)c3ccc(C#N)cn3)ccc2F)Cn2ccnc2C(N)=N1 : IC50 beneath 20 nM, strictly?
A. t

Q. Is IC50 strictly under 20 nM for the entry CC1(c2cccc(-c3cncnc3)c2)Cn2ccnc2C(N)=N1 (racemic) ?
A. f

###

Molecular target: recombinant BACE1 protein (Homo sapiens, UniProt P56817)
Construct: recombinant BACE1 protein in a final concentration of 1 μg/ml
Sequence (P56817 46-501): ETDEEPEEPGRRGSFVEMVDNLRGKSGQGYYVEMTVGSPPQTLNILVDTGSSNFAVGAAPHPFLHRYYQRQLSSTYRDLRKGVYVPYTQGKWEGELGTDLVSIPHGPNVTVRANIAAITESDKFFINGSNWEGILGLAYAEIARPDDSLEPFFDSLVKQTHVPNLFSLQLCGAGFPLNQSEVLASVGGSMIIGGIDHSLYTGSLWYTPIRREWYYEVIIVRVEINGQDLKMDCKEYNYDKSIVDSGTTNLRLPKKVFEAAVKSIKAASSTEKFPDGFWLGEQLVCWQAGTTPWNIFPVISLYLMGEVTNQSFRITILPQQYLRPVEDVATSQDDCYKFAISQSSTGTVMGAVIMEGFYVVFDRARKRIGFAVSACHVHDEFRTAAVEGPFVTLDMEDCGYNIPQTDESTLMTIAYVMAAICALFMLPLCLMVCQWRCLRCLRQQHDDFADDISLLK
Assay: Biochemical FRET based assay
Conditions: recombinant BACE1 1 μg/ml, 10 μm substrate, 120 minutes, room temperature, pH 5.0; read-out: Biochemical FRET based assay pIC50 (converted)
Could you mark each record True if its IC50 falls strictly under 200 nM, and False if it equals or exceeds it?

Sample answers from the record:
COc1cnc(C(=O)Nc2ccc(F)c(C3(C)Cn4ccnc4C(N)=N3)c2)cn1 (single isomer, unassigned) [Compound 9]
True
C[C@@]1(c2cc(NC(=O)c3ncc(Cl)cc3Cl)ccc2F)Cn2cc(C(F)(F)F)nc2C(N)=N1 [Compound 25]
True
CCOc1cnc(C(=O)Nc2ccc(F)c([C@]3(C)Cn4ccnc4C(N)=N3)c2)cn1 [Compound 23]
False
CC1(c2cc(-c3cncnc3)c(F)cc2F)Cn2ccnc2C(N)=N1 (single isomer, unassigned) [Compound 11]
False
NC1=NC(c2cc(NC(=O)c3ncc(Cl)cc3F)ccc2F)(C(F)F)Cn2ccnc21 (stereo not drawn) [Compound 33]
False

Q. Determine if C[C@@]1(c2cc(NC(=O)c3ccn(C(F)F)n3)ccc2F)Cn2ccnc2C(N)=N1 [Compound 42] shows IC50 strictly lower than 200 nM.
A. True

Q. Say whether its IC50 is strictly beneath 200 nM. Entry: CC1(c2cccc(-c3cncnc3)c2)Cn2ccnc2C(N)=N1 (racemic) [Compound 1]
A. False

Q. Bench note: check whether NC1=NC(c2cc(NC(=O)c3ccc(F)cn3)ccc2F)(C(F)F)Cn2ccnc21 (stereo not drawn) [Compound 28] shows IC50 below 200 nM
A. False

###

A collection of compounds and their measured IC50
Molecular target: recombinant BACE1 protein (Homo sapiens)
Construct: recombinant BACE1 protein in a final concentration of 1 μg/ml
Experiment: Biochemical FRET based assay
Conditions: recombinant BACE1 1 μg/ml, 10 μm substrate, 120 minutes, room temperature, pH 5.0; read-out: Biochemical FRET based assay pIC50 (converted)
// units = nM; emit number, no label

Recorded IC50, per entry:
Cc1nc(C(=O)Nc2ccc(F)c([C@]3(C)Cn4cc(C(F)(F)F)nc4C(N)=N3)c2)c(C(F)(F)F)o1
269
C[C@@]1(c2cc(NC(=O)c3ccc(F)cn3)ccc2F)Cn2c(Cl)cnc2C(N)=N1
75.9
C[C@@]1(c2cc(NC(=O)c3ccc(C#N)cn3)ccc2F)Cn2cc(C(F)F)nc2C(N)=N1
97.7
Cc1nc(C(=O)Nc2ccc(F)c([C@]3(C)Cn4ccnc4C(N)=N3)c2)co1
186
C[C@@]1(c2cc(NC(=O)c3ccc(F)cn3)ccc2F)Cn2cc(Br)nc2C(N)=N1
75.9

Q. Consider the compound Cc1nc(C(=O)Nc2ccc(F)c([C@]3(C)Cn4ccnc4C(N)=N3)c2)c(C)o1 and give its measured IC50.
A. 380

Q. What does the data say about its IC50? Entry: C[C@@]1(c2cc(NC(=O)c3ncc(C#N)cc3F)ccc2F)Cn2ccnc2C(N)=N1
A. 95.5

Q. I'd like to know its IC50. The compound in question is CC1(c2cc(-c3cncc(Cl)c3)c(F)cc2F)Cn2ccnc2C(N)=N1 (single isomer, unassigned)
A. 18600

Q. Can you look up the measured IC50 of C[C@@]1(c2cccc(-c3cc(Cl)cc(Cl)c3)c2)Cn2ccnc2C(N)=N1 for me?
A. 14100

Q. Name the reported IC50 value associated with the compound C[C@@]1(c2cc(NC(=O)c3ccc(F)cn3)ccc2F)Cn2cc(C(F)(F)F)nc2C(N)=N1
A. 132

Q. Find the recorded IC50 belonging to C[C@@]1(c2cc(NC(=O)c3ccc(F)cn3)ccc2F)Cn2cc(Cl)nc2C(N)=N1 and report it.
A. 61.7

Q. Item under review: C[C@@]1(c2cc(NC(=O)c3ccsn3)ccc2F)Cn2ccnc2C(N)=N1 . Reported IC50?
A. 427
